B1: DYRK1B (parent)
chain: YQGPGTRRLQEVLGVQTGGPGGRR

variants of: B1; experiment: protein stability index of a GFP-peptide fusion (GPS, HEK-293T) (PSI 1-6); higher = more stable; conditions: c terminus: a fixed tail appended;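 also: lentivirally expressed fusions sorted by FACS into six bins by GFP to DsRed ratio, PSI derived from sequencing read proportions per bin multiplied by bin number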
Could you label it Met if measured protein stability index is 3 or higher, and Not met otherwise?

Request: Confirm if protein stability index reported for the variant P20Y is 3 or above.
Response: Not met

Request: // next record G14H
Response: Met

Request: // next record G3F
Response: Not met

Request: // next record G21W
Response: Not met

Request: // next record G5N
Response: Met

Request: // next record R8D
Response: Met

Request: // next record G3L
Response: Met

Request: // next record G22K
Response: Not met

Request: // next record Q16S
Response: Not met

Request: // next record R24P
Response: Met

Request: // next record R24Y
Response: Met

Request: // next record Q2K
Response: Met

Request: // next record Y1A
Response: Met

Request: // next record G5C
Response: Met

Request: // next record G5F
Response: Not met

Request: // next record R23T
Response: Met

Request: // next record P20S
Response: Met

Request: // next record G3E
Response: Met

Request: // next record V12Q
Response: Met

Request: // next record T17E
Response: Met

Request: // next record P4R
Response: Not met

Request: // next record E11W
Response: Not met

Request: // next record Q10G
Response: Not met

Request: // next record R23D
Response: Met

Request: // next record L13D
Response: Met

Request: // next record Y1S
Response: Met

Request: // next record P20W
Response: Not met

Request: // next record G21I
Response: Met

Request: // next record L9E
Response: Met

Request: // next record L13S
Response: Met

Request: // next record T6G
Response: Met

Request: // next record R7F
Response: Not met

Request: // next record Q16F
Response: Not met

Request: // next record R7H
Response: Met

Request: // next record L9Q
Response: Met

Request: // next record Q2M
Response: Met

Request: // next record G3K
Response: Not met

Request: // next record Q2I
Response: Not met

Request: // next record R8Y
Response: Not met

Request: // next record V15C
Response: Not met
